Where these numbers come from: ChEMBL document CHEMBL1201862

Test system: ACHN
METHOD NOTES: NCI tumour cell line growth inhibition, 48 h
Activity calls are given as the source filed them. Cut-off read from the data, not from the text of the source: active = GI50 up to about 1.1 µM and inactive = higher.
REPORTED PROPERTY: GI50

Below: 5 compounds and their reported GI50.
CCOC(=O)N1CCN(c2nc(C)n(-c3ccccc3)c(=S)c2C#N)CC1 = > 65 µM (inactive)
N#Cc1nc(C(O)c2ccccc2)oc1N (stereo unspecified) = > 100 µM (inactive)
CCOC(=O)C1=C(C)N(c2ccc(C)cc2)C2=C(C(=O)N(c3ccccc3)C2c2ccccc2)C1c1ccccc1 (stereo unspecified) = 16.6 µM (inactive)
O=C(O)CNC(=O)C1NC(C(F)(F)F)(C(F)(F)F)OC1(C(F)(F)F)C(F)(F)F (stereo unspecified) = > 100 µM (inactive)
O=C1CSc2ccnc(=O)n21 = > 100 µM (inactive)

The recorded GI50 for O=C(NC(C(F)(F)F)(C(F)(F)F)P(=O)(c1ccccc1)c1ccccc1)C(C(F)(F)F)C(F)(F)F is 16.7 µM (inactive)
